- Tested on: Hep-3B cells
- assay-method-text: Cellular assay: erythropoietin secretion in Hep-3B cells
- Assay type: cell-based, human
- condition-label: Homo sapiens, Hep3B, 100 μM compound, 24 hours, percent of EPO secretion relative to assay control compound 7-[(4-Chloro-phenyl)-(5-methyl-isoxazol-3-ylamino)-methyl]-quinolin-8-ol, read-out: Cellular % EPO Stimulation

[
  {
    "smiles-entry": "Cc1ccccc1Oc1ccc2nc(-n3cc(C(=O)O)cn3)[nH]c(=O)c2c1",
    "Emax at 100 µM / %": 78
  },
  {
    "smiles-entry": "Cc1cc2nc(-n3cc(C(=O)O)cn3)[nH]c(=O)c2cc1Oc1ccccc1",
    "Emax at 100 µM / %": 80
  },
  {
    "smiles-entry": "O=C(O)c1cnn(-c2nc3cc(I)ccc3c(=O)[nH]2)c1",
    "Emax at 100 µM / %": 20
  },
  {
    "smiles-entry": "Cc1ccc2c(=O)[nH]c(-n3cc(C(=O)O)cn3)nc2c1",
    "Emax at 100 µM / %": 32
  },
  {
    "smiles-entry": "Cc1ccc(Oc2ccc3nc(-n4cc(C(=O)O)cn4)[nH]c(=O)c3c2)cc1",
    "Emax at 100 µM / %": 95
  },
  {
    "smiles-entry": "Cc1ccccc1CNc1ccc2nc(-n3cc(C(=O)O)cn3)[nH]c(=O)c2c1",
    "Emax at 100 µM / %": 101
  },
  {
    "smiles-entry": "Cc1ccc2nc(-n3cc(C(=O)O)cn3)[nH]c(=O)c2c1",
    "Emax at 100 µM / %": 14
  },
  {
    "smiles-entry": "O=C(O)c1cnn(-c2nc3ccc(NCc4ccccc4Cl)cc3c(=O)[nH]2)c1",
    "Emax at 100 µM / %": 24
  },
  {
    "smiles-entry": "CN(C)c1ccc2nc(-n3cc(C(=O)O)cn3)[nH]c(=O)c2c1",
    "Emax at 100 µM / %": 19
  },
  {
    "smiles-entry": "O=C(O)c1cnn(-c2nc3ccc(S(=O)(=O)N4CCCC4)cc3c(=O)[nH]2)c1",
    "Emax at 100 µM / %": 17
  }
]

----------
- Test system: Hep-3B cells
- assay-method-text: Cellular assay: erythropoietin secretion in Hep-3B cells
- Type: cell-based, human
- condition-label: Homo sapiens, Hep3B, 100 μM compound, 24 hours, percent of EPO secretion relative to assay control compound 7-[(4-Chloro-phenyl)-(5-methyl-isoxazol-3-ylamino)-methyl]-quinolin-8-ol, read-out: Cellular % EPO Stimulation
- Experimental: Hep-3B cells (ATCC, Manassas, Va.) were plated in 96-well plates at 20,000 cells per well in 100 μl of DMEM containing 10% fetal bovine serum, 1% non-essential amino acids, 50 IU/mL of penicillin and 50 μg/mL of streptomycin (all cell culture reagents from Invitrogen, Carlsbad, Calif.). Twenty-four hours after plating, compounds were added and incubated for an additional 24 hours. […] Erythropoietin in the supernatant was detected according to the manufacturer's instructions as follows. […]
measurement-kind: Emax at 100 µM (%)

[
  {
    "compound": "O=C(O)c1cnn(-c2nc3cc(Br)ccc3c(=O)[nH]2)c1 [Example 134]",
    "measurement-kind": "Emax at 100 µM",
    "quantitative-readout": 18
  },
  {
    "compound": "O=C(O)c1cnn(-c2nc3ccc(Oc4cccc(C(F)(F)F)c4F)cc3c(=O)[nH]2)c1 [Example 96]",
    "measurement-kind": "Emax at 100 µM",
    "quantitative-readout": 51
  },
  {
    "compound": "O=C(O)c1cnn(-c2nc3cc(F)c(Oc4c(Cl)cccc4Cl)cc3c(=O)[nH]2)c1 [Example 50]",
    "measurement-kind": "Emax at 100 µM",
    "quantitative-readout": 67
  },
  {
    "compound": "O=C(O)c1cnn(-c2nc3c(Cl)cccc3c(=O)[nH]2)c1 [Example 14]",
    "measurement-kind": "Emax at 100 µM",
    "quantitative-readout": 8
  },
  {
    "compound": "CS(=O)(=O)c1cccc(-c2ccc3nc(-n4cc(C(=O)O)cn4)[nH]c(=O)c3c2)c1 [Example 206]",
    "measurement-kind": "Emax at 100 µM",
    "quantitative-readout": 13
  },
  {
    "compound": "O=C(O)c1cnn(-c2nc3cc(F)c(Oc4cc(Cl)ccc4Cl)cc3c(=O)[nH]2)c1 [Example 87]",
    "measurement-kind": "Emax at 100 µM",
    "quantitative-readout": 84
  },
  {
    "compound": "Cc1cc(C)cc(Oc2ccc3nc(-n4cc(C(=O)O)cn4)[nH]c(=O)c3c2)c1 [Example 98]",
    "measurement-kind": "Emax at 100 µM",
    "quantitative-readout": 85
  },
  {
    "compound": "O=C(O)c1cnn(-c2nc3ccc(Br)cc3c(=O)[nH]2)c1 [Example 13]",
    "measurement-kind": "Emax at 100 µM",
    "quantitative-readout": 35
  },
  {
    "compound": "O=C(O)c1cnn(-c2nc3cc(F)ccc3c(=O)[nH]2)c1 [Example 133]",
    "measurement-kind": "Emax at 100 µM",
    "quantitative-readout": 10
  },
  {
    "compound": "Cc1cccc(C)c1Oc1c(F)cc2nc(-n3cc(C(=O)O)cn3)[nH]c(=O)c2c1F [Example 63]",
    "measurement-kind": "Emax at 100 µM",
    "quantitative-readout": 14
  },
  {
    "compound": "O=C(O)c1cnn(-c2nc3ccc(C(=O)N4CCCC4)cc3c(=O)[nH]2)c1 [Example 162]",
    "measurement-kind": "Emax at 100 µM",
    "quantitative-readout": 15
  },
  {
    "compound": "O=C(O)c1cnn(-c2nc3c(C(F)(F)F)cccc3c(=O)[nH]2)c1 [Example 16]",
    "measurement-kind": "Emax at 100 µM",
    "quantitative-readout": 16
  }
]

The reported measurements were obtained from patent US8937078B2.
